Give IC50 for every item shown.
Target: Polyadenylate-binding protein 1 (Homo sapiens)
Sequence (P11940 whole entry): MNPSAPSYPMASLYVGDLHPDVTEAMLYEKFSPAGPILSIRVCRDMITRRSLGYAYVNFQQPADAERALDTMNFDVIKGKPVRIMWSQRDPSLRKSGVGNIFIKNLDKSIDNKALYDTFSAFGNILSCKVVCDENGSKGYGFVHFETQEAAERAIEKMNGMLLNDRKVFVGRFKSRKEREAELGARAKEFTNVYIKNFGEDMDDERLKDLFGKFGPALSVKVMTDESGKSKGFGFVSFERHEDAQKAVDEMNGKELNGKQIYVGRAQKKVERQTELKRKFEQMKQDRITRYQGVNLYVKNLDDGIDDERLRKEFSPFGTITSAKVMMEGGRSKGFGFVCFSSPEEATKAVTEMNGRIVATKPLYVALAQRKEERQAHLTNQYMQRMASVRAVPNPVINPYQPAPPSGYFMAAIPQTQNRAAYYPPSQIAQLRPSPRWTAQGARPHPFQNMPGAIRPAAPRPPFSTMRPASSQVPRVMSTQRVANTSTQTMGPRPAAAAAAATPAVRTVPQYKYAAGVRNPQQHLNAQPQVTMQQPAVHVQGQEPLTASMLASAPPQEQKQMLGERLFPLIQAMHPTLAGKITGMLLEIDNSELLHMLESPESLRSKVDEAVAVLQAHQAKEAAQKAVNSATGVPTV
Assay: PABP1 MLLE–PAM2 binding inhibitor potency, dose response, biochemical, fluorescence polarization, FITC-PAM2 peptide (AID 602259)
Type: functional
Conditions: read-out: IC50_Mean
Activity calls are given as the source filed them. Rule as the data show it: active = IC50 of 20 µM or less and inactive = more.

Recorded IC50, per entry:
O=C(O)CSc1cc(NS(=O)(=O)c2cccc([N+](=O)[O-])c2)c2ccccc2c1O = 35.5 µM (inactive)
O=C1/C(=C/c2cccnc2)SC(=S)N1c1ccc(F)cc1 = > 66 µM (inactive)
O=[N+]([O-])c1cc([N+](=O)[O-])c2cc3ccccc3nc2c1 = > 66 µM (inactive)
COc1cc(C(=S)N2CCOCC2)cc(OC)c1OS(=O)(=O)c1ccc(C)cc1 = > 66 µM (inactive)

Could you now look at the following compound, please?
Can you look up IC50 on Polyadenylate-binding protein 1 (Homo sapiens) for CSCC(C)N1CCC(Oc2cccc(C(=O)NCc3ccccn3)c2)CC1 (stereo not given) ?
31.6 µM (inactive)

Cited source: ChEMBL document CHEMBL1201862
